molecules and their reported GI50
Test system: HOP-62
protocol.details: NCI tumour cell line growth inhibition, 48 h
Active and inactive are the calls of the source. Cut-off read from the data, not from the text of the source: active = GI50 up to about 1.1 µM and inactive = higher.

Answered cases to consult:
INSERT INTO results (molecule, tested_on, measured_endpoint, result) VALUES
  ('C[C@]12CC[C@H](O)CC1=CC[C@@H]1[C@@H]2CC[C@]2(C)C(=O)[C@@H](N3CCOCC3)C[C@@H]12', 'HOP-62', 'GI50', '> 100 µM (inactive)'),
  ('Cc1ccc(S(=O)(=O)N2C[C@@H]3CC[C@]4(CO[Si](C)(C)C(C)(C)C)N[C@@H](c5ccccc5)[C@H]2[C@H]34)cc1', 'HOP-62', 'GI50', '44.2 µM (inactive)'),
  ('CCOC(=O)c1csc(CCCCCCc2nc(C(=O)OCC)cs2)n1', 'HOP-62', 'GI50', '> 57.1 µM (inactive)'),
  ('N=C(N)NC(CC(=O)O)c1ccccc1 (stereo not given)', 'HOP-62', 'GI50', '> 100 µM (inactive)');

Using the record for C[N+]12CCCCC1C(CN1C(=O)c3ccccc3C1=O)CCC2 (stereo not given) , report its GI50.
> 100 µM (inactive)

Ok, now Cc1ccc(S(=O)(=O)NC(CO)C(=O)O)cc1 (stereo not given)
> 100 µM (inactive)

Ok, now O=c1cc(-c2ccc(Cl)cc2)oc2cc(OCCCOc3ccc4c(=O)cc(-c5ccc(Cl)cc5)oc4c3)ccc12
> 100 µM (inactive)

Ok, now C=CN(C=C)C(=O)Cn1cc(-c2ccccc2)nn1
> 100 µM (inactive)

Ok, now O=c1c2cc(Br)ccc2oc2nc3n(c(=O)c12)CCCS3
> 100 µM (inactive)

Ok, now O=S1OC2(c3ccccc3-c3ccccc32)c2ccccc21 (stereo not given)
40.6 µM (inactive)

====

Tested on: OVCAR-3
protocol.details: NCI tumour cell line growth inhibition, 48 h
The source made the active and inactive calls. No stated cut-off is given here; in the data, active = GI50 up to about 1.1 µM and inactive = higher.
molecules and their reported GI50

Answered cases to consult:
INSERT INTO measurements (molecule, tested_on, result) VALUES
  ('C[C@@H]1OC(=O)C[C@H]2CC(=O)N(CCC3CN(C(=O)OCc4ccccc4)c4ccccc43)C[C@@H]21 (stereo not given in full)', 'OVCAR-3', '> 100 µM (inactive)'),
  ('CCNc1cc2c3c(c1)CCCN3CCC2', 'OVCAR-3', '2.32 µM (inactive)'),
  ('O=C(c1cc2ccccc2[nH]1)C(O)(c1cc2ccccc2[nH]1)c1cc2ccccc2[nH]1', 'OVCAR-3', '20 µM (inactive)'),
  ('COc1ccc(-n2c3c(c4cc(O)ccc42)C(=O)c2ccccc2C3=O)cc1', 'OVCAR-3', '8.38 µM (inactive)'),
  ('COc1ccc(-c2cc(-c3cc(Cl)cc(Br)c3O)nc(O)n2)cc1', 'OVCAR-3', '17.5 µM (inactive)');

Now consider a different molecule.
Using the record for COC(=O)c1cc(CC(C)C)c2c(c1)[nH]c1ccccc12 , report its GI50.
> 100 µM (inactive)

====

Test system: IGROV-1
protocol.details: NCI tumour cell line growth inhibition, 48 h
Activity calls are given as the source filed them. No stated cut-off is given here; in the data, active = GI50 up to about 1.1 µM and inactive = higher.
The reply should be one of these categories: yes (1) (active), no (0) (inactive)

Some solved cases for reference:
INSERT INTO measurements (compound, category_label) VALUES
  ('NC1=NS(=O)(=O)N=C(N)C1=Cc1ccc([N+](=O)[O-])o1', 'no (0)'),
  ('C/C(=N\Nc1nc2ccccc2[nH]1)c1ccc2ccccc2n1', 'yes (1)'),
  ('CO/C(=C/C(=O)C(Cl)(Cl)Cl)CC/C(=C\C(=O)C(Cl)(Cl)Cl)OC', 'no (0)'),
  ('Cc1ccc(OCC2OC(n3cnc4c(N(C)C)nc(Br)nc43)CC2Oc2ccc(C)cc2)cc1 (stereo unspecified)', 'no (0)'),
  ('C1CN(P2(N3CC3)=NP(N3CC3)(N3CC3)=NP(N3CC3)(N3CC3)=N2)CCO1 (stereo unspecified) [FOTRETAMINE]', 'no (0)');

Please indicate how the test categorized O=C(CCCc1ccccn1)c1ccccc1 .
no (0)

Ok, now CCCCc1nccc2c(C)c3[nH]c4ccccc4c3cc12
no (0)

Ok, now CC1=C(O)C(=O)c2cn(C)cc2C1=O
no (0)

Ok, now O=C1NC(Nc2ccccc2Cl)=N/C1=C\c1c(Cl)cccc1Cl
no (0)

Ok, now CCOC(=O)CCC(=O)C1c2cccc(O)c2C(=O)c2c(O)cccc21
no (0)

Ok, now Clc1cccc(N/N=N/c2ccc(-c3nc4ccccc4s3)cc2)c1
no (0)
